B1: HDV Ribozyme (parent)
chain: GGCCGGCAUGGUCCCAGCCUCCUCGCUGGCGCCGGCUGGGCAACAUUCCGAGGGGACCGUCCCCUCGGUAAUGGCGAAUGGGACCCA

variants of: B1; assay: self-cleavage, relative activity (ratio to wild type); higher = more cleavage; co-transcriptional

| mutation_key | self-cleavage |
| --- | --- |
| U27G A83G | 0.755 |
| C7A C63G | 0.35 |
| C26U C63A | 0.969 |
| C44A U72A | 0.733 |
| C13A G38U | 0.0536 |
| C22U C84U | 0.29 |
| G10A C13G | 0.104 |
| G10A C33G | 0.0767 |
| G40A A83U | 0.251 |
| C33A U65G | 0.244 |
| G38A A42U | 0 |
| C41U A87C | 1.09 |
| U60C C64G | 0.776 |
| C13G C49A | 0.123 |
| U20A A42C | 0.0594 |
| C13A C36U | 0.0432 |
| A45C A78G | 0.178 |
| U46A A78G | 0.277 |
| G2C C62U | 0.0841 |
| A42G G81A | 0.106 |
| G5A C64A | 0.198 |
| G31U U65A | 0.318 |
